- measured target: T1, Human BCMA (human, UniProt Q02223 1-54, limits assumed)
- T1 construct: also called huBCMA; B-cell maturation antigen
- T1 sequence (looked up): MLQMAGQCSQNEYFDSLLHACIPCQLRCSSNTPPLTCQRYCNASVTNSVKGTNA
- protocol description: SPR, IgG immobilised, human BCMA analyte
- Protocol: All experiments were performed on a Bio-Rad Proteon XPR36 surface Plasmon resonance biosensor (Bio-Rad, Hercules, Calif.). […] The analysis temperature for the immobilization was 25° C. and the running buffer was HBS-T+(10 mM HEPES, 150 mM NaCl, 0.05% Tween-20, pH 7.4). […] The analysis temperature for the BCMA binding analysis was 37° C. or 25° C. in a running buffer of HBS-T+, supplemented with 1 mg/mL BSA. […] Immediately after the 50 nM BCMA injection, dissociation was monitored for 2 hours. […]
parameter: koff (s⁻¹)
All answers are understood in s⁻¹, so give the number only.

Field: example entries. Status: answers known.
>>> test_result("COMBO_Rd4_6nM_C10 (antibody, V domains shown, IgG) VH: EVQLLESGGGLVQPGGSLRLSCAASGFTFSSYPMSWVRQAPGKGLEWVSAIGGSGGSIHYADSVKGRFTISRDNSKNTLYLQMNSLRAEDTAVYYCARYWPMDSWGQGTLVTVSS VL: EIVLTQSPGTLSLSPGERATLSCRASQSVSSSYWGWYQQKPGQAPRLLMYDASIRATGIPDRFSGSGSGTDFTLTISRLEPEDFAVYYCQQYQCWPLTFGQGTKVEIK")
"9.72e-05"
>>> test_result("COMBO_Rd4_6nM_C02 (antibody, V domains shown, IgG) VH: EVQLLESGGGLVQPGGSLRLSCAASGFTFSSYAMNWVRQAPGKGLEWVSAISDSGGFVYYADSVKGRFTISRDNSKNTLYLQMNSLRAEDTAVYYCARYWPMDSWGQGTLVTVSS VL: EIVLTQSPGTLSLSPGERATLSCRASQSVSSSYLAWYQQKPGQAPRLLMYDASIRATGIPDRFSGSGSGTDFTLTISRLEPEDFAVYYCQQYEFWPLTFGQGTKVEIK")
0.000443

Moving on to another binder below.
Given item COMBO_Rd4_6nM_C25 (antibody, V domains shown, IgG) VH: EVQLLESGGGLVQPGGSLRLSCAASGFTFSSYPMSWVRQAPGKGLEWVSAIGGSGGSTYYADSVKGRFTISRDNSKNTLYLQMNSLRAEDTAVYYCARYWPMDPWGQGTLVTVSS VL: EIVLTQSPGTLSLSPGERATLSCRASQSVSSPYLAWYQQKPGQAPRLLMYDASIRATGIPDRFSGSGSGTDFTLTISRLEPEDFAVYYCQQYQSWPLTFGQGTKVEIK , the value recorded as its koff is 0.000113

Source listed as patent US20160297884A1.
